- procedureDetails: self-splicing fitness, log relative to wild type (ln ratio); higher = more splicing; Tetrahymena group I intron in knt gene, E. coli kanamycin selection, DiMSum; sequences stand for … in CUCUCU…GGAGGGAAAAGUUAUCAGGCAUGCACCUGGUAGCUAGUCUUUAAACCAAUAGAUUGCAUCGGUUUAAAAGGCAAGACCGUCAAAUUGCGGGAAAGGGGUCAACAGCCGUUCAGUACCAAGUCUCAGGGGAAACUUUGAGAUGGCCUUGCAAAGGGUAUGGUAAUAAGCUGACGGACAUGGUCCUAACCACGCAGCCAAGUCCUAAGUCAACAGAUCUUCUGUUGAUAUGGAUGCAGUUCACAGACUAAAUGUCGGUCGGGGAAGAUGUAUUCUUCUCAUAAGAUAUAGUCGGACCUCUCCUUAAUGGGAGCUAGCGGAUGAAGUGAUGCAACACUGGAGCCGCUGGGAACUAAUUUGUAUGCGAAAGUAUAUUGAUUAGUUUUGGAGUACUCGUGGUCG;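 also: selection with 25 µg/mL kanamycin versus none on LB agar overnight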
- conditionSet: 30 °C
Cut-off -0.9 on self-splicing fitness (ln), inclusive. At or above means class 1; below means class 0.

primarySequence	groupLabel
AGGAAGCAAUAUUACGGAGG	class 0
GAACAGCAAUAUUACGGCAC	class 1
GCAAAGCAAUAUUACGACCC	class 0
UCAGAGCAAUAUUACGGUUU	class 0
CGACAGCAAUAUUACGAGUG	class 0
AAUCAGCAAUAUUACGUCCC	class 1
